assay-comment: chronic and acute toxicity
Format: in vivo, mice
condition-details: female, Black/6, mouse, in vivo, ip; intraperitoneal bolus; read-out: highest studied dose found not toxic, acute
Where a SMILES comes first, the peptide text is derived from it. [ ]: non-standard residue; d: D form. Nva = CCC[C@H](N)C(=O)O; Ahx = NCCCCCC(=O)O
measured-quantity: NOAEL (mg/kg)
Answers are plain numbers, in mg/kg.

Q: Field request: NOAEL | item: CCC[C@H](NC(=O)[C@H](CCC(=O)O)NC(=O)[C@@H](N)[C@@H](C)O)C(=O)N[C@H](C(=O)N[C@@H](C)C(=O)N[C@@H](CC(C)C)C(=O)N[C@@H](CO)C(=O)N[C@@H](CCCNC(=N)N)C(=O)NCCCCCC(N)=O)C(C)C [SEQ ID NO:4, Thr-Glu-Nva-Val-Ala-Leu-Ser-Arg-AcpNH2] (H-TE[Nva]VALSR[Ahx]-NH2)
A: 30

* * *

assay-comment: serum stability
Format: in vitro ADME, mouse
condition-details: 25% aqueous pooled mouse serum, 37° C.; read-out: half-life in 25% serum
Where a SMILES comes first, the peptide text is derived from it. [ ]: non-standard residue; d: D form. aThr = C[C@H](O)[C@H](N)C(=O)O; Nva = CCC[C@H](N)C(=O)O; Ahx = NCCCCCC(=O)O
measured-quantity: half-life (min)
One number for each entry, in min.

compound | half-life, min
CCC[C@H](NC(=O)[C@H](CCC(=O)O)NC(=O)[C@@H](N)[C@@H](C)O)C(=O)N[C@H](C(=O)N[C@@H](C)C(=O)N[C@@H](CC(C)C)C(=O)N[C@@H](CO)C(=O)N[C@@H](CCCNC(=N)N)C(=O)NCCCCCC(N)=O)C(C)C [SEQ ID NO:4, Thr-Glu-Nva-Val-Ala-Leu-Ser-Arg-AcpNH2] (H-TE[Nva]VALSR[Ahx]-NH2) | 20

--- query ---
Q: Field request: half-life | item: CCC[C@H](NC(=O)[C@H](CCC(=O)O)NC(=O)[C@@H](N)[C@H](C)O)C(=O)N[C@H](C(=O)N[C@@H](C)C(=O)N[C@@H](CC(C)C)C(=O)N[C@@H](CO)C(=O)N[C@@H](CCCNC(=N)N)C(=O)NCCCCCC(N)=O)C(C)C [SEQ ID NO:49] (H-[aThr]E[Nva]VALSR[Ahx]-NH2)
A: 40

* * *

Please respond with reported pEC50 for every item in the list.
Test system: ObR-positive cancer cells (brain and breast)
Format: cell-based
pEC50: −log10 of the molar value. Where a SMILES comes first, the peptide text is derived from it. [ ]: non-standard residue; d: D form. NMeR = CN[C@@H](CCCNC(=N)N)C(=O)O; aThr = C[C@H](O)[C@H](N)C(=O)O; Nva = CCC[C@H](N)C(=O)O; Ahx = NCCCCCC(=O)O; βAla = NCCC(=O)O

For orientation, consider the following solved cases.
compound | target-or-system | measured-result
CCC[C@H](NC(=O)[C@H](CCC(=O)O)NC(=O)[C@@H](N)[C@H](C)O)C(=O)N[C@H](C(=O)N[C@@H](C)C(=O)N[C@@H](CC(C)C)C(=O)N[C@@H](CO)C(=O)N[C@@H](CCCNC(=N)N)C(=O)NCCCCCC(N)=O)C(C)C [SEQ ID NO:49] (H-[aThr]E[Nva]VALSR[Ahx]-NH2) | ObR-positive cancer cells (brain and breast) | < 6.00
CCC[C@H](NC(=O)[C@H](CCC(=O)O)NC(=O)[C@@H](CO)NC(C)=O)C(=O)N[C@H](C(=O)N[C@@H](C)C(=O)N[C@@H](CC(C)C)C(=O)N[C@@H](CO)C(=O)N(C)[C@@H](CCCNC(=N)N)C(=O)NCCC(N)=O)C(C)C [SEQ ID NO:6] (Ac-[dS]E[Nva]VALS[NMeR][βAla]-NH2; N-terminus assumed) | ObR-positive cancer cells (brain and breast) | < 6.00
CCC[C@H](NC(=O)[C@H](CCC(=O)O)NC(=O)[C@@H](N)[C@@H](C)O)C(=O)N[C@H](C(=O)N[C@@H](C)C(=O)N[C@@H](CC(C)C)C(=O)N[C@@H](CO)C(=O)N[C@@H](CCCNC(=N)N)C(=O)NCCCCCC(N)=O)C(C)C [SEQ ID NO:4, Thr-Glu-Nva-Val-Ala-Leu-Ser-Arg-AcpNH2] (H-TE[Nva]VALSR[Ahx]-NH2) | ObR-positive cancer cells (brain and breast) | < 6.00
CCC[C@H](NC(=O)[C@@H](N)CCC(=O)O)C(=O)N[C@H](C(=O)N[C@@H](C)C(=O)N[C@@H](CC(C)C)C(=O)N[C@@H](CO)C(=O)N[C@@H](CCCNC(=N)N)C(=O)NCCCCCC(N)=O)C(C)C [SEQ ID NO:51, Glu-Nva-Val-Ala-Leu-Ser-Arg-AcpNH2] (H-E[Nva]VALSR[Ahx]-NH2; N-terminus assumed) | ObR-positive cancer cells (brain and breast) | < 6.30

--- query ---
Q: Field request: pEC50 | item: CCC[C@H](NC(=O)[C@H](CCCNC(=N)N)NC(=O)[C@H](CO)NC(=O)[C@H](CC(C)C)NC(=O)[C@H](C)NC(=O)[C@H](CCC)NC(=O)[C@H](CCC)NC(=O)[C@H](CCC(=O)O)NC(=O)[C@@H](N)[C@@H](C)O)C(N)=O [SEQ ID NO:47, Thr-Glu-Nva-Nva-Ala-Leu-Ser-Arg-NvaNH2] (H-TE[Nva][Nva]ALSR[Nva]-NH2)
A: < 6.00

* * *

assay-comment: serum stability
Format: in vitro ADME, mouse
condition-details: 100% pooled mouse serum, 37° C.; read-out: half-life in 100% serum
Where a SMILES comes first, the peptide text is derived from it. [ ]: non-standard residue; d: D form. aThr = C[C@H](O)[C@H](N)C(=O)O; Nva = CCC[C@H](N)C(=O)O; Ahx = NCCCCCC(=O)O
measured-quantity: half-life (min)
One number for each entry, in min.

compound | half-life, min
CCC[C@H](NC(=O)[C@H](CCC(=O)O)NC(=O)[C@@H](N)[C@@H](C)O)C(=O)N[C@H](C(=O)N[C@@H](C)C(=O)N[C@@H](CC(C)C)C(=O)N[C@@H](CO)C(=O)N[C@@H](CCCNC(=N)N)C(=O)NCCCCCC(N)=O)C(C)C [SEQ ID NO:4, Thr-Glu-Nva-Val-Ala-Leu-Ser-Arg-AcpNH2] (H-TE[Nva]VALSR[Ahx]-NH2) | 5

--- query ---
Q: Field request: half-life | item: CCC[C@H](NC(=O)[C@H](CCC(=O)O)NC(=O)[C@@H](N)[C@H](C)O)C(=O)N[C@H](C(=O)N[C@@H](C)C(=O)N[C@@H](CC(C)C)C(=O)N[C@@H](CO)C(=O)N[C@@H](CCCNC(=N)N)C(=O)NCCCCCC(N)=O)C(C)C [SEQ ID NO:49] (H-[aThr]E[Nva]VALSR[Ahx]-NH2)
A: 10
